Biological target: T1, PUF4 RNA-binding domain (Saccharomyces cerevisiae, UniProt P25339 537-888)
T1 sequence: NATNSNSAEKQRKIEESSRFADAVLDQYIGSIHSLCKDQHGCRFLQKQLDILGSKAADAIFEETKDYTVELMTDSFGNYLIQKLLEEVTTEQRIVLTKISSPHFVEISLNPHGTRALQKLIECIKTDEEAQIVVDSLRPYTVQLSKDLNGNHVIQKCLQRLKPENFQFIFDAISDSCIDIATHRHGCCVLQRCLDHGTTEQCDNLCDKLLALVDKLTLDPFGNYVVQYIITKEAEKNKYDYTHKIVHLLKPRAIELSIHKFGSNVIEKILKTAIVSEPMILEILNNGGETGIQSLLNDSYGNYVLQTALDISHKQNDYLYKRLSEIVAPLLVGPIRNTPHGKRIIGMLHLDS
Assay: Mg; RNA-MaP; 20 mM Na-HEPES pH 7.4, 30 mM KOAc, 0.75 mM MgCl2, 0.1% Tween-20, 5% glycerol, 0.1 mg/mL BSA, 2 mM DTT; 25 C; 0.0125-409.6 nM protein
Details: tags: N-His6-TEV cleaved; C-SNAP kept, Cy3B-labelled; label: tethered on chip by stalled RNA polymerase
Here the recorded pKd is given for each entry.
Friendly reminder that pKd comes from taking -log10 of the concentration in mol/L.

INSERT INTO assay_data (binder, observed) VALUES
  ('UCUCUUUGUAUUUAAAUCUCUU (ssRNA) [Ic_S1_P5E.1_K5.1_C5.1_H5.1_A5.1_[A7T]_F5.1_[T8A]_[T9A]_T5.1]', 6.97),
  ('UCUCUUUCUAUAUUAUUACAUCUCUU (ssRNA) [Id_ii_S1_P5E.3_K5.2_C5.2_[C-2T]_[T-1C]_H5.2_A5.1_F5.1_T5.2_[T11C]]', 6.20),
  ('Ie_S4_P3E.2_K3.1_C3.2_[+-1CCC]_H3.1_A3.1_F3.1_T3.2 (ssRNA) RNA: UUUGACAACUGAUCGUUCUUUCUCUCCCUGUAUAUAUAUUCUUUCUCGAUCAGUUGUCUUU', 9.01),
  ('ACAAACUGUACCUCUAUUAACAAAC (ssRNA) [Ie_S3_P4E.1_K4.1_C4.1_H4.1_[+4CCTC]_A4.1_F4.1_T4.1]', 7.83),
  ('Ie_S4_P4E.1_K4.1_C4.1_H4.1_[+1CT]_A4.1_F4.1_T4.1 (ssRNA) RNA: UUUGACAACUGAUCGUUCUUUCUUCUGUAUAUUAUUCUUUCUCGAUCAGUUGUCUUU', 9.65),
  ('Ie_S4_P4E.1_K4.1_C4.1_H4.1_A4.1_F4.1_[+8CCTCT]_T4.1 (ssRNA) RNA: UUUGACAACUGAUCGUUCUUUCUUGUAUAUUCCUCUAUUCUUUCUCGAUCAGUUGUCUUU', 8.18);

Item under review: Ic_S2_P5E.1_K5.1_C5.1_H5.1_A5.1_[T5G]_[A7C]_F5.1_[T9C]_[A10G]_T5.1 (ssRNA) RNA: UUUGAUUAAUAUGAUAUCGUUCUUUCUUGUAGUCUCGUUCUUUCUCGAUAUCAUAUUAAUCUUU . Reported pKd? 6.15

Quick one: UCUCUUUGUAUGUGGUCUCUU (ssRNA) [Ic_S1_P4E.1_K4.1_C4.1_H4.1_A4.1_[A6G]_F4.1_[T8G]_[A9G]_T4.1] 6.00

Similarly, UCUCUUUGUAUAUUACCUUCUCUU (ssRNA) [Ie_S1_P4E.1_K4.1_C4.1_H4.1_A4.1_F4.1_[+9CCT]_T4.1] ? 9.10

Input Ie_S2_P3E.2_K3.1_C3.2_H3.1_A3.1_F3.1_[+7CC]_T3.2 (ssRNA) RNA: UUUGAUUAAUAUGAUAUCGUUCUUUCUCUUGUAUAUCCAUAUUCUUUCUCGAUAUCAUAUUAAUCUUU 7.76

Follow-up item: Ic_S4_P4E.1_K4.1_C4.1_H4.1_A4.1_[T5A]_[A6C]_F4.1_T4.1 (ssRNA) RNA: UUUGACAACUGAUCGUUCUUUCUUGUAACUUAUUCUUUCUCGAUCAGUUGUCUUU 8.41
